pIC50 overview
# MEASURED ON: T1, human OT7T175 (metastin receptor) (human, UniProt Q969F8 1-398)
# T1 construct: expressed on CHO cells (hOT7T175-expressed CHO cells; hOT7T175/CHO); also called hOT7T175; h0T7T175
# ASSAY NAME: FMAT competition with Cy-5-labeled metastin (40-54), hOT7T175-expressed CHO cells
Square brackets hold non-standard residues; d marks the D form. Ends that are not written are not given here. Arg(Me) = CNC(=N)NCCC[C@H](N)C(=O)O; 3Pal = N[C@@H](Cc1cccnc1)C(=O)O; azaGly = NNC(=O)O
FYI, pIC50 means -log10 of a concentration in mol per litre.

// below: answered binders
BINDER	pIC50
[dY]N[3Pal]NSF[azaGly]L[Arg(Me)]F-NH2 (N-terminus assumed; SMILES CNC(=N)NCCC[C@H](NC(=O)[C@H](CC(C)C)NC(=O)NNC(=O)[C@H](Cc1ccccc1)NC(=O)[C@H](CO)NC(=O)[C@H](CC(N)=O)NC(=O)[C@H](Cc1cccnc1)NC(=O)[C@H](CC(N)=O)NC(=O)[C@H](N)Cc1ccc(O)cc1)C(=O)N[C@@H](Cc1ccccc1)C(N)=O) [Compound No. 251: [D-Tyr1,Pya(3) 3,AzaGly7,Arg(Me)9]MS10]	7.06
[dY][dW]NSFGL[Arg(Me)]F-NH2 (N-terminus assumed; SMILES CNC(=N)NCCC[C@H](NC(=O)[C@H](CC(C)C)NC(=O)CNC(=O)[C@H](Cc1ccccc1)NC(=O)[C@H](CO)NC(=O)[C@H](CC(N)=O)NC(=O)[C@@H](Cc1c[nH]c2ccccc12)NC(=O)[C@H](N)Cc1ccc(O)cc1)C(=O)N[C@@H](Cc1ccccc1)C(N)=O) [Compound No. 224: des(1)-[D-Tyr2,D-Trp3,Arg(Me)9]MS10]	6.85

Tell me measured pIC50 for YLWNSFGLRF-NH2 [Compound No. 59: [Leu2]MS10] please.
6.47
